Tested on: HIV
Test: MT4 assay: antiviral HIV activity (cell protection, cell titer glo readout at 96 hours)
Type: cell-based
Details: Human immunodeficiency virus 1, MT4, 96 h, MT4 cells, cell titer glo readout at 96 hours, 10 point dose response; read-out: HIV MT4 Assay IC50
pIC50: −log10 of the molar value.
reported endpoint: pIC50

compound	pIC50
Cc1nc2c(cc(-c3cc(NCCN4CCOCC4)ncn3)n2C)c(-c2cc(F)c3c(c2C)CCCO3)c1[C@H](OC(C)(C)C)C(=O)O [Example 365]	7.06

[A] Cc1nc2c(cc(CN3CCC[C@@H]3CO)n2C)c(-c2cc(F)c3c(c2C)CCCO3)c1[C@H](OC(C)(C)C)C(=O)O [Example 295]
[B] Cc1nc2c(cc(-c3ccnc(-c4cnc5c(c4)CCCN5)c3)n2C)c(-c2cc(F)c3c(c2C)CCCO3)c1[C@H](OC(C)(C)C)C(=O)O (atropisomer, axis not shown) [Example 72]
Consider A and B . Which of these has its pIC50 at a higher number? Answer with the label corresponding to your selection.
B

====

Test system: HIV
Test: MT4 assay: antiviral HIV activity (cell protection, cell titer glo readout at 96 hours)
Type: cell-based
Conditions: Human immunodeficiency virus 1, MT4, 96 h, MT4 cells, cell titer glo readout at 96 hours, 10 point dose response; read-out: HIV MT4 Assay IC50
Description: […] Luciferase activity was measured 96 hours later by adding a cell titer glo (Promega, Madison, Wis.). […] Under the same condition, cytotoxicity of the compounds was determined using cell titer Glo™ (Promega, Madison, Wis.). […]
reported endpoint: IC50 (nM)

compound	unit text	IC50
Cc1nc2c(cc(-c3nccc(N4CCN(C5CCOCC5)CC4)n3)n2C)c(-c2cc(F)c3c(c2C)CCCO3)c1[C@H](OC(C)(C)C)C(=O)O (atropisomer, axis not shown; (M))	nM	17.6
CCO[C@H](C(=O)O)c1c(C)nc2c(cc(-c3ccnc(-c4ccc5c(cnn5C)c4)c3)n2C)c1-c1cc(F)c2c(c1C)CCCO2	nM	4.9
Cc1nc2c(cc(C(=O)N3CCN(C(C)C)CC3)n2C)c(-c2cc(F)c3c(c2C)CCCO3)c1[C@H](OC(C)(C)C)C(=O)O	nM	100

[A] Cc1nc2c(cc(C(=O)N3CCc4ccc(S(=O)(=O)NC(C)C)cc4C3)n2C)c(-c2cc(F)c3c(c2C)CCCO3)c1[C@H](OC(C)(C)C)C(=O)O
[B] Cc1nc2c(cc(-c3nsc(-c4ccc5c(cnn5C)c4)n3)n2C)c(-c2cc(F)c3c(c2C)CCCO3)c1[C@H](OC(C)(C)C)C(=O)O (atropisomer, axis not shown; (M))
[C] Cc1nc2c(cc(-c3nc(N4CCC(N5CCOCC5)CC4)ns3)n2C)c(-c2cc(F)c3c(c2C)CCCO3)c1[C@H](OC(C)(C)C)C(=O)O
[D] COCCC(=O)N1CCCN(c2cc(-c3cc4c(-c5cc(F)c6c(c5C)CCCO6)c([C@H](OC(C)(C)C)C(=O)O)c(C)nc4n3C)ccn2)CC1 (atropisomer, axis not shown)
[E] Cc1nc2c(cc(C(=O)NCCO)n2C)c(-c2cc(F)c3c(c2C)CCCO3)c1[C@H](OC(C)(C)C)C(=O)O
rank_up(items): orders items by reported IC50 in ascending numerical order. Give me the labels in the order the question wants.
C, B, D, A, E
(C: 1.6 nM, B: 4 nM, D: 41.5 nM, A: 357 nM, E: 3860 nM)
